assay: Hydrolysis of FP derivatives in human plasma; format: in vitro ADME; details: human, plasma, Table 1; human plasma, 37° C., one hour; read-out: Hydrolyzing rate
RECORDED_ENDPOINT: metabolised at 1 h (%)
Dear colleague, please return just the value in %, with no unit written.

CCC(=O)OCOC(=O)C(C)c1ccc(-c2ccccc2)c(F)c1 (stereo not drawn)    94.6

// query Look up metabolised at 1 h for this compound: CC(=O)OCOC(=O)C(C)c1ccc(-c2ccccc2)c(F)c1 (stereo not drawn)
// result 97.5

// query Look up metabolised at 1 h for this compound: CC(C)C(=O)OCOC(=O)C(C)c1ccc(-c2ccccc2)c(F)c1 (stereo not drawn)
// result 86.3
